# measurement.target: Kappa-type opioid receptor (Homo sapiens, UniProt P41145)
# Sequence (P41145 whole entry): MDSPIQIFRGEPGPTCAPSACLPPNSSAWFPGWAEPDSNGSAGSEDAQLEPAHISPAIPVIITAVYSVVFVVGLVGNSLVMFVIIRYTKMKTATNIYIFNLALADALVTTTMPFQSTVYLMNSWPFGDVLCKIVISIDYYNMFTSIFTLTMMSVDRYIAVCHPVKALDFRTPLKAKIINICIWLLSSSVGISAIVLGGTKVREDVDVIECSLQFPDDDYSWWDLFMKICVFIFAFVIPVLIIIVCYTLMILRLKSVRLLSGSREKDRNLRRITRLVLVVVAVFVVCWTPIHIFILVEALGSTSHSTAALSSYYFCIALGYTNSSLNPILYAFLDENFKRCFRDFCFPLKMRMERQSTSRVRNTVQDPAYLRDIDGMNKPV
# protocol.summary: Activity at human kappa opioid receptor expressed in CHO cells by [35S]GTP-gamma-S binding assay
# Format: functional, cell-based
Item-by-item account of Emax
Answer format: numeric, % implied, no suffix.

// worked examples, Emax included
[[record]]
compound = "O=C(CCCCCCCCC(=O)Oc1ccc2c(c1)[C@@]13CCCCC1[C@@H](C2)N(CC1CCC1)CC3)Oc1ccccc1 (stereo partly drawn)"
measurement_target = "Kappa-type opioid receptor (Homo sapiens, UniProt P41145)"
number = 170

[[record]]
compound = "O=C(/C=C/C=C/C(=O)Oc1ccc2c(c1)[C@@]13CCCCC1[C@@H](C2)N(CC1CCC1)CC3)Oc1ccc2c(c1)[C@@]13CCCCC1[C@@H](C2)N(CC1CCC1)CC3 (stereo partly drawn)"
measurement_target = "Kappa-type opioid receptor (Homo sapiens, UniProt P41145)"
number = 91

[[record]]
compound = "O=C(CCCCCCCCC(=O)Oc1ccc2c(c1)[C@]13CCCCC1[C@H](C2)N(CC1CCC1)CC3)Oc1ccc2c(c1)[C@@]13CCCCC1[C@@H](C2)N(CC1CCC1)CC3 (single isomer, unassigned; (+))"
measurement_target = "Kappa-type opioid receptor (Homo sapiens, UniProt P41145)"
number = 77

[[record]]
compound = "O=C(CCCCCCCCC(=O)Oc1ccc2c(c1)[C@@]13CCCCC1[C@@H](C2)N(C[C@@H]1CCCO1)CC3)Oc1ccc2c(c1)[C@@]13CCCCC1[C@@H](C2)N(C[C@@H]1CCCO1)CC3 (stereo partly drawn)"
measurement_target = "Kappa-type opioid receptor (Homo sapiens, UniProt P41145)"
number = 140


Ask: State the measured Emax (Kappa-type opioid receptor (Homo sapiens, UniProt P41145)) of O=C(O)CCCCCCCCC(=O)Oc1ccc2c(c1)[C@@]13CCCCC1[C@@H](C2)N(CC1CCC1)CC3 (stereo partly drawn)
Result: 75

Ask: Provide the reported Emax (system: Kappa-type opioid receptor (Homo sapiens, UniProt P41145)) for O=C(CCCCCCCCC(=O)Oc1ccc2c(c1)[C@@]13CCCCC1[C@@H](C2)N(CC1CC1)CC3)Oc1ccc2c(c1)[C@@]13CCCCC1[C@@H](C2)N(CC1CCC1)CC3 (single isomer, unassigned; (-))
Result: 110

Ask: Give Emax for CN1CC[C@]23c4c5ccc(OC(=O)CCCCCCCCC(=O)Oc6ccc7c(c6)[C@@]68CCCCC6[C@@H](C7)N(CC6CCC6)CC8)c4O[C@H]2[C@@H](O)C=C[C@H]3[C@H]1C5 (stereo partly drawn) tested on Kappa-type opioid receptor (Homo sapiens, UniProt P41145).
Result: 150

Ask: Supply Emax measured with Kappa-type opioid receptor (Homo sapiens, UniProt P41145) for O=C(CCCCCCCCC(=O)Oc1ccc2c(c1)[C@@]13CCCCC1[C@@H](C2)N(CC1CCC1)CC3)Nc1ccc2c(c1)[C@@]13CCCCC1[C@@H](C2)N(CC1CCC1)CC3 (stereo partly drawn) .
Result: 55
